measurement-target: human carbonic anhydrase (CA) isoform VII (Homo sapiens, UniProt P43166)
Sequence (P43166 whole entry, canonical isoform): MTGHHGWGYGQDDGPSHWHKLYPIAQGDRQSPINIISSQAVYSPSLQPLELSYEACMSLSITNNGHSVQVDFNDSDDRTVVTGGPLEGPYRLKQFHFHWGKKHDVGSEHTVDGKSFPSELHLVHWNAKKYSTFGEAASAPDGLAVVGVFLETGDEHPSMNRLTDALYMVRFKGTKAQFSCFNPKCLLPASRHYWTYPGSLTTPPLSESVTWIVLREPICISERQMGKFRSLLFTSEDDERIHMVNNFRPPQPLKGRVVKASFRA
method-description: Stopped-flow CO2 hydrase assay, CA VII
Format: biochemical
conditions-used: means ± SEM of 3 different assays
Catalogue of Ki values

compound: CCC(C)OC(=O)Nc1ccc(S(N)(=O)=O)cc1 (racemic) [Racemic-MBPC]
Ki (nM): 121
//
compound: CC[C@H](C)OC(=O)Nc1ccc(S(N)(=O)=O)cc1 [(S)-MBPC]
Ki (nM): 53.3
//
compound: CC[C@@H](C)OC(=O)Nc1ccc(S(N)(=O)=O)cc1 [(R)-MBPC]
Ki (nM): 197

---

measurement-target: human carbonic anhydrase (CA) isoform IV (Homo sapiens)
Sequence (P22748 19-312): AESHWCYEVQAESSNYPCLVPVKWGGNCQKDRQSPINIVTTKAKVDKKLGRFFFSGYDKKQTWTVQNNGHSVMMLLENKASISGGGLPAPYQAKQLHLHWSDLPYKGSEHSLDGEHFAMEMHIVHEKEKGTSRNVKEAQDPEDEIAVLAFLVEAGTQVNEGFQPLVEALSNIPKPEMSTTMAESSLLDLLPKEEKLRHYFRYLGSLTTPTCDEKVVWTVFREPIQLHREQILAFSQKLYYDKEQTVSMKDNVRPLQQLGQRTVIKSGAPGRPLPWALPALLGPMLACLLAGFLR
method-description: Stopped-flow CO2 hydrase assay, CA IV
Type: biochemical
conditions-used: means ± SEM of 3 different assays
pKi: −log10 of the molar value.
Property: pKi; scope: individual molecules
test-readout: pKi

molecule: CCC(C)OC(=O)Nc1ccc(S(N)(=O)=O)cc1 (racemic) [Racemic-MBPC]
observed: 6.36
--
molecule: CC[C@H](C)OC(=O)Nc1ccc(S(N)(=O)=O)cc1 [(S)-MBPC]
observed: 6.60
--
molecule: CC[C@@H](C)OC(=O)Nc1ccc(S(N)(=O)=O)cc1 [(R)-MBPC]
observed: 6.28

---

Reported Tmax values follow for various molecules
method-description: Pharmacokinetics from plasma levels after i.p. administration to rats
Format: in vivo, rat
conditions-used: male, Sprague Dawley, rat, ip, plasma levels, i.p. 80 mg/kg

molecule: CC[C@H](C)OC(=O)Nc1ccc(S(N)(=O)=O)cc1 [(S)-MBPC]
unit-annotation: h
Tmax: 1

molecule: CCC(C)OC(=O)Nc1ccc(S(N)(=O)=O)cc1 (racemic) [Racemic-MBPC]
unit-annotation: h
Tmax: 0.33

molecule: CC[C@@H](C)OC(=O)Nc1ccc(S(N)(=O)=O)cc1 [(R)-MBPC]
unit-annotation: h
Tmax: 1.7

---

method-description: Pharmacokinetics from brain levels after i.p. administration to rats
Type: in vivo, rat
conditions-used: male, Sprague Dawley, rat, brain, ip, AUCbrain/AUCplasma, i.p. 80 mg/kg, read-out: Brain-to-plasma (AUCinf) ratio
Below, each entry is listed with its recorded Kp.

compound: CC[C@@H](C)OC(=O)Nc1ccc(S(N)(=O)=O)cc1 [(R)-MBPC]
Kp: 1.27
--
compound: CC[C@H](C)OC(=O)Nc1ccc(S(N)(=O)=O)cc1 [(S)-MBPC]
Kp: 1.32

---

method-description: Pharmacokinetics from brain levels after i.p. administration to rats
Format: in vivo, rat
conditions-used: male, Sprague Dawley, rat, brain, ip, 80 mg/kg, brain levels, i.p. 80 mg/kg
Here, each record is paired with measured AUC(0-inf) data.
test-readout: AUC(0-inf) (ng·h/mL)

molecule: CC[C@H](C)OC(=O)Nc1ccc(S(N)(=O)=O)cc1 [(S)-MBPC]
observed: 52000

molecule: CC[C@@H](C)OC(=O)Nc1ccc(S(N)(=O)=O)cc1 [(R)-MBPC]
observed: 30000

molecule: CCC(C)OC(=O)Nc1ccc(S(N)(=O)=O)cc1 (racemic) [Racemic-MBPC]
observed: 48000

---

method-description: Pharmacokinetics from plasma levels after i.p. administration to rats
Format: in vivo, rat
conditions-used: male, Sprague Dawley, rat, plasma, ip, 80 mg/kg, plasma levels, i.p. 80 mg/kg
test-readout: AUC(0-inf) (ng·h/mL)

molecule: CCC(C)OC(=O)Nc1ccc(S(N)(=O)=O)cc1 (racemic) [Racemic-MBPC]
observed: 32000
--
molecule: CC[C@@H](C)OC(=O)Nc1ccc(S(N)(=O)=O)cc1 [(R)-MBPC]
observed: 24000
--
molecule: CC[C@H](C)OC(=O)Nc1ccc(S(N)(=O)=O)cc1 [(S)-MBPC]
observed: 40000

---

method-description: Pharmacokinetics from brain levels after i.p. administration to rats
Assay type: in vivo, rat
conditions-used: male, Sprague Dawley, rat, ip, brain levels, i.p. 80 mg/kg

compound: CCC(C)OC(=O)Nc1ccc(S(N)(=O)=O)cc1 (racemic) [Racemic-MBPC]
unit-annotation: min
half-life: 42

compound: CC[C@@H](C)OC(=O)Nc1ccc(S(N)(=O)=O)cc1 [(R)-MBPC]
unit-annotation: min
half-life: 30

compound: CC[C@H](C)OC(=O)Nc1ccc(S(N)(=O)=O)cc1 [(S)-MBPC]
unit-annotation: min
half-life: 54

---

method-description: Pharmacokinetics from brain levels after i.p. administration to rats
Type: in vivo, rat
conditions-used: male, Sprague Dawley, rat, brain/plasma, ip, AUCbrain/AUCplasma, i.p. 80 mg/kg, read-out: Brain-to-plasma (AUCinf) ratio
test-readout: Kp

compound: CCC(C)OC(=O)Nc1ccc(S(N)(=O)=O)cc1 (racemic) [Racemic-MBPC]
observed: 1.49

---

measurement-target: human carbonic anhydrase (CA) isoform I (Homo sapiens)
Sequence (P00915 whole entry, canonical isoform): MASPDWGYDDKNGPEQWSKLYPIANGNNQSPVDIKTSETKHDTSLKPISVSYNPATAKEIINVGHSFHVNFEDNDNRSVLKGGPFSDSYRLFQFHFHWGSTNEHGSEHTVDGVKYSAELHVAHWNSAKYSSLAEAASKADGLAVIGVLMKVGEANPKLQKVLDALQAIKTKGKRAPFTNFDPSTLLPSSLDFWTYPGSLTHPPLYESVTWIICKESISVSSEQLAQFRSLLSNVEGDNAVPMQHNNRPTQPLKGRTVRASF
method-description: Stopped-flow CO2 hydrase assay, CA I
Type: biochemical
conditions-used: means ± SEM of 3 different assays
The reader will find reported Ki values listed item by item below.

compound: CC[C@H](C)OC(=O)Nc1ccc(S(N)(=O)=O)cc1 [(S)-MBPC]
Ki: 71.8 nM
--
compound: CCC(C)OC(=O)Nc1ccc(S(N)(=O)=O)cc1 (racemic) [Racemic-MBPC]
Ki: 97.1 nM
--
compound: CC[C@@H](C)OC(=O)Nc1ccc(S(N)(=O)=O)cc1 [(R)-MBPC]
Ki: 203 nM

---

Items are presented alongside their recorded CL/F.
method-description: Pharmacokinetics from plasma levels after i.p. administration to rats
Assay type: in vivo, rat
conditions-used: male, Sprague Dawley, rat, ip, plasma levels, i.p. 80 mg/kg

compound: CC[C@@H](C)OC(=O)Nc1ccc(S(N)(=O)=O)cc1 [(R)-MBPC]
CL/F: 55 mL/min/kg
//
compound: CCC(C)OC(=O)Nc1ccc(S(N)(=O)=O)cc1 (racemic) [Racemic-MBPC]
CL/F: 41.7 mL/min/kg
//
compound: CC[C@H](C)OC(=O)Nc1ccc(S(N)(=O)=O)cc1 [(S)-MBPC]
CL/F: 33.3 mL/min/kg

---

Catalogue of molecules with associated half-life
method-description: Pharmacokinetics from plasma levels after i.p. administration to rats
Assay type: in vivo, rat
conditions-used: male, Sprague Dawley, rat, ip, plasma levels, i.p. 80 mg/kg
test-readout: half-life (min)

molecule: CCC(C)OC(=O)Nc1ccc(S(N)(=O)=O)cc1 (racemic) [Racemic-MBPC]
unit-annotation: min
observed: 30
--
molecule: CC[C@@H](C)OC(=O)Nc1ccc(S(N)(=O)=O)cc1 [(R)-MBPC]
unit-annotation: min
observed: 36
--
molecule: CC[C@H](C)OC(=O)Nc1ccc(S(N)(=O)=O)cc1 [(S)-MBPC]
unit-annotation: min
observed: 72

---

method-description: Pharmacokinetics from plasma levels after i.p. administration to rats
Format: in vivo, rat
conditions-used: male, Sprague Dawley, rat, ip, plasma levels, i.p. 80 mg/kg
// MRT lookup, one value per entry

molecule: CCC(C)OC(=O)Nc1ccc(S(N)(=O)=O)cc1 (racemic) [Racemic-MBPC]
MRT, h: 1.7
//
molecule: CC[C@H](C)OC(=O)Nc1ccc(S(N)(=O)=O)cc1 [(S)-MBPC]
MRT, h: 2.7
//
molecule: CC[C@@H](C)OC(=O)Nc1ccc(S(N)(=O)=O)cc1 [(R)-MBPC]
MRT, h: 2

---

method-description: Pharmacokinetics from brain levels after i.p. administration to rats
Type: in vivo, rat
conditions-used: brain levels, i.p. 80 mg/kg, 80 mg/kg
Recorded AUCinf values for a group of compounds are listed next.

compound: CC[C@@H](C)OC(=O)Nc1ccc(S(N)(=O)=O)cc1 [(R)-MBPC]
AUCinf: 30400 ng·h/mL

compound: CCC(C)OC(=O)Nc1ccc(S(N)(=O)=O)cc1 (racemic) [Racemic-MBPC]
AUCinf: 47800 ng·h/mL

compound: CC[C@H](C)OC(=O)Nc1ccc(S(N)(=O)=O)cc1 [(S)-MBPC]
AUCinf: 51500 ng·h/mL

---

Measured TD50, listed per entry.
method-description: Minimal neurotoxicity (TD50) in rats
Type: in vivo, rat
conditions-used: rat, in vivo, po; rats dosed p.o.; read-out: Neurotoxicity-TD50 [95% CI]

compound: CC[C@H](C)OC(=O)Nc1ccc(S(N)(=O)=O)cc1 [(S)-MBPC]
TD50: > 200 mg/kg
//
compound: CC[C@@H](C)OC(=O)Nc1ccc(S(N)(=O)=O)cc1 [(R)-MBPC]
TD50: > 500 mg/kg
//
compound: CCC(C)OC(=O)Nc1ccc(S(N)(=O)=O)cc1 (racemic) [Racemic-MBPC]
TD50: > 500 mg/kg

---

Entries annotated with measured Tmax
method-description: Pharmacokinetics from brain levels after i.p. administration to rats
Format: in vivo, rat
conditions-used: male, Sprague Dawley, rat, ip, brain levels, i.p. 80 mg/kg
test-readout: Tmax (h)

molecule: CC[C@H](C)OC(=O)Nc1ccc(S(N)(=O)=O)cc1 [(S)-MBPC]
test-readout: Tmax
observed: 1.66
--
molecule: CCC(C)OC(=O)Nc1ccc(S(N)(=O)=O)cc1 (racemic) [Racemic-MBPC]
test-readout: Tmax
observed: 1.33
--
molecule: CC[C@@H](C)OC(=O)Nc1ccc(S(N)(=O)=O)cc1 [(R)-MBPC]
test-readout: Tmax
observed: 2.7
